The values you see were collected from patent US20220031607A1.

# PROTOCOL SUMMARY: Solubility in excipients and solvents by HPLC analysis
# Format: physicochemical
# EXPERIMENTAL SETUP: pH 2.0 solution, pH 2, simulated gastric fluid, thermodynamic from solid, in pH 2.0
PARAMETER MEASURED: solubility at 1 h (µg/mL)
Report only the number, with the unit µg/mL understood.

q: Query solubility at 1 h for Cc1c(N)cccc1Cn1ccc(OCCc2cccs2)cc1=O [Compound of formula 1]
a: 440

====

# PROTOCOL SUMMARY: Solubility in excipients and solvents by HPLC analysis
# Format: physicochemical
# EXPERIMENTAL SETUP: Labrasol, aqueous with cosolvent or surfactant or cyclodextrin, thermodynamic from solid, in Labrasol
PARAMETER MEASURED: solubility at 1 h

q: Query solubility at 1 h for Cc1c(N)cccc1Cn1ccc(OCCc2cccs2)cc1=O [Compound of formula 1]
a: > 20 mg/mL

====

# PROTOCOL SUMMARY: Solubility in excipients and solvents by HPLC analysis
# Assay type: physicochemical
# EXPERIMENTAL SETUP: Peceol, oil or lipid, thermodynamic from solid, in Peceol
PARAMETER MEASURED: solubility at 1 h (µg/mL)
Report only the number, with the unit µg/mL understood.

q: Query solubility at 1 h for "Cc1c(N)cccc1Cn1ccc(OCCc2cccs2)cc1=O"
a: 4400

====

# PROTOCOL SUMMARY: Solubility in excipients and solvents by HPLC analysis
# Type: physicochemical
# EXPERIMENTAL SETUP: Tween 80, aqueous with cosolvent or surfactant or cyclodextrin, thermodynamic from solid, in Tween 80
PARAMETER MEASURED: solubility at 1 h

q: Query solubility at 1 h for Cc1c(N)cccc1Cn1ccc(OCCc2cccs2)cc1=O [Compound of formula 1]
a: ≥ 10000 µg/mL

====

# PROTOCOL SUMMARY: Evaluation of water solubility according to pH
# Format: physicochemical
# EXPERIMENTAL SETUP: aqueous buffer, thermodynamic from solid; aqueous solution pH 3, room temperature
PARAMETER MEASURED: solubility at 2 h (µg/mL)
Report only the number, with the unit µg/mL understood.

q: Query solubility at 2 h for "Cc1c(N)cccc1Cn1ccc(OCCc2cccs2)cc1=O"
a: 6

====

# PROTOCOL SUMMARY: Evaluation of water solubility according to pH
# Format: physicochemical
# EXPERIMENTAL SETUP: aqueous buffer, thermodynamic from solid; aqueous solution pH 7, room temperature
PARAMETER MEASURED: solubility at 2 h (µg/mL)
Report only the number, with the unit µg/mL understood.

q: Query solubility at 2 h for Cc1c(N)cccc1Cn1ccc(OCCc2cccs2)cc1=O [Compound of formula 1]
a: 2.5

====

# PROTOCOL SUMMARY: Evaluation of water solubility according to pH
# Format: physicochemical
# EXPERIMENTAL SETUP: simulated gastric fluid, thermodynamic from solid; aqueous solution pH 1.2, room temperature
PARAMETER MEASURED: solubility at 2 h

q: Query solubility at 2 h for Cc1c(N)cccc1Cn1ccc(OCCc2cccs2)cc1=O [Compound of formula 1]
a: ~1000 µg/mL
